# tgt: cAMP and cAMP-inhibited cGMP 3',5'-cyclic phosphodiesterase 10A (Rattus norvegicus, UniProt Q9QYJ6)
quantity_kind: IC50 (nM)

molecule	IC50 [nM]
CN(C)C(=O)c1cccc(-c2nccnc2OC2CN(c3ccc4ccccc4n3)C2)c1	22.8

(A) CC(=O)N1CCC(c2cccnc2OC2CCN(c3ncccc3C)CC2)CC1
(B) Cc1cnccc1-c1nccnc1OC1CCN(c2ccc3ccccc3n2)CC1
(C) OC1CCN(c2ncc(Br)c(OC3CN(c4ccc5ccccc5n4)C3)n2)CC1
Provide the items ranked by increasing IC50. Output spec: labels arranged per the requested ranking. B, C, A

----------
# tgt: cAMP and cAMP-inhibited cGMP 3',5'-cyclic phosphodiesterase 10A (Rattus norvegicus)
# Sequence (Q9QYJ6 whole entry): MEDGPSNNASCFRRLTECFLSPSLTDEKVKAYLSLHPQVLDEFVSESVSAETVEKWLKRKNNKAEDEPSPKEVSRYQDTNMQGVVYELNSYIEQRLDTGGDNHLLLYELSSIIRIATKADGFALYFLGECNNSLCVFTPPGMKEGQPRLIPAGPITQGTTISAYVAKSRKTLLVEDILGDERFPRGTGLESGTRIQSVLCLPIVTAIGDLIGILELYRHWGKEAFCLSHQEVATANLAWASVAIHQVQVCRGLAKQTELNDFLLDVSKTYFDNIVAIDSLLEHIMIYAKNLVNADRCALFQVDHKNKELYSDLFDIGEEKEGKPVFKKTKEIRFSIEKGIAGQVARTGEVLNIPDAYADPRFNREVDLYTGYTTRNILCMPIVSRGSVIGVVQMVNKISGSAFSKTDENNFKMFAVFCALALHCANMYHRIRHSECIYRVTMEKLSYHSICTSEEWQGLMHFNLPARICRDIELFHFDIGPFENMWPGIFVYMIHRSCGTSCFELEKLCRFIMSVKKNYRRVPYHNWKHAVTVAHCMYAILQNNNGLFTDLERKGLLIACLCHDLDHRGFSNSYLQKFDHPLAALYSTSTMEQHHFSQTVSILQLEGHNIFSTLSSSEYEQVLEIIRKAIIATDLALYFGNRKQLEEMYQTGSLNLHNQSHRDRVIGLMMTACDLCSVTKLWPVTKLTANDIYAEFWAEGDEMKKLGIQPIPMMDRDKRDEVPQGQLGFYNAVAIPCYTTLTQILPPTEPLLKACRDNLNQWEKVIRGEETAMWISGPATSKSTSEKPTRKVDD
pIC50: −log10 of the molar value.
quantity_kind: pIC50

Here is how some compounds turned out for pIC50.
compound	pIC50
O=C1CCN(c2nccnc2OC2CN(c3ccc4ccccc4n3)C2)CC1	6.96
CC(=O)N1CC=C(c2nccnc2OC2CN(C(=O)c3ccc[nH]3)C2)CC1	6.68
CC(C)(O)C1CCN(c2nccnc2OC2CN(c3ccc4ccccc4n3)C2)CC1	7.08
COc1ncccc1-c1cnc(N2CCC(CO)CC2)nc1OC1CN(c2ccc3ccccc3n2)C1	9.22

(1) Cc1ccc(-c2nccnc2OC2CN(c3ccc4ccccc4n3)C2)cc1
(2) O=C(c1nc2ccccc2[nH]1)N1CC(Oc2ncccc2[C@H]2CC[C@@H](O)CC2)C1
1 or 2 : whose pIC50 is greater? Respond with the label that goes with your answer. 2
(2: 7.68, 1: 7.01)

(1) c1cnc(O[C@@H]2CCN(c3cc4ccccc4cn3)C2)c(C2CCOCC2)c1
(2) FC1(F)CCN(c2nccnc2OC2CN(c3ccc4ccccc4n3)C2)CC1
(3) OC1CCCN(c2nccnc2OC2CN(c3ccc4ccccc4n3)C2)CC1 (stereo unspecified)
(4) Cc1cnc(OC2CN(c3ccc4ccccc4n3)C2)c(N2CCC(CO)CC2)c1
Provide the items ranked by increasing pIC50. Output spec: labels arranged per the requested ranking. 1, 3, 2, 4
(1: 5.74, 3: 7.53, 2: 8.37, 4: 8.82)

(P) CC(=O)N1CCC(c2nccnc2OC2CCN(c3ccc(C)cn3)CC2)CC1
(Q) CC(=O)N1CCN(c2nccnc2OC2CN(C(=O)c3nc4ccccc4[nH]3)C2)CC1
(R) O=C(c1cc2ccccc2cn1)N1CCC(Oc2ncccc2C2CCOCC2)CC1
(S) CS(=O)(=O)N1CCC(c2nccnc2OC2CN(c3ccc4ccccc4n3)C2)CC1
Provide the items ranked by increasing pIC50. Output spec: labels arranged per the requested ranking. P, Q, S, R

(1) OCc1ccc(N2CCC(Oc3ncccc3C3CCOCC3)CC2)nc1
(2) c1cnc(OC2CN(c3ccc4ccccc4n3)C2)c(N2CCOCC2)c1
// compare measured pIC50 between 1 and 2 ; output the lower one Respond with the label that goes with your answer. 1

(1) CC(=O)N1CCC(c2cccnc2OC2CCN(c3ccc(C)cn3)CC2)CC1
(2) FC1(F)CCN(c2nccnc2OC2CN(c3ccc4ccccc4n3)C2)C1
1 or 2 : whose pIC50 is greater? Respond with the label that goes with your answer. 2
(2: 7.02, 1: 5.93)

Values from ChEMBL document CHEMBL3639166
